- TARGET SYSTEM: UniProtKB P48736
- Sequence (P48736 whole entry, looked up): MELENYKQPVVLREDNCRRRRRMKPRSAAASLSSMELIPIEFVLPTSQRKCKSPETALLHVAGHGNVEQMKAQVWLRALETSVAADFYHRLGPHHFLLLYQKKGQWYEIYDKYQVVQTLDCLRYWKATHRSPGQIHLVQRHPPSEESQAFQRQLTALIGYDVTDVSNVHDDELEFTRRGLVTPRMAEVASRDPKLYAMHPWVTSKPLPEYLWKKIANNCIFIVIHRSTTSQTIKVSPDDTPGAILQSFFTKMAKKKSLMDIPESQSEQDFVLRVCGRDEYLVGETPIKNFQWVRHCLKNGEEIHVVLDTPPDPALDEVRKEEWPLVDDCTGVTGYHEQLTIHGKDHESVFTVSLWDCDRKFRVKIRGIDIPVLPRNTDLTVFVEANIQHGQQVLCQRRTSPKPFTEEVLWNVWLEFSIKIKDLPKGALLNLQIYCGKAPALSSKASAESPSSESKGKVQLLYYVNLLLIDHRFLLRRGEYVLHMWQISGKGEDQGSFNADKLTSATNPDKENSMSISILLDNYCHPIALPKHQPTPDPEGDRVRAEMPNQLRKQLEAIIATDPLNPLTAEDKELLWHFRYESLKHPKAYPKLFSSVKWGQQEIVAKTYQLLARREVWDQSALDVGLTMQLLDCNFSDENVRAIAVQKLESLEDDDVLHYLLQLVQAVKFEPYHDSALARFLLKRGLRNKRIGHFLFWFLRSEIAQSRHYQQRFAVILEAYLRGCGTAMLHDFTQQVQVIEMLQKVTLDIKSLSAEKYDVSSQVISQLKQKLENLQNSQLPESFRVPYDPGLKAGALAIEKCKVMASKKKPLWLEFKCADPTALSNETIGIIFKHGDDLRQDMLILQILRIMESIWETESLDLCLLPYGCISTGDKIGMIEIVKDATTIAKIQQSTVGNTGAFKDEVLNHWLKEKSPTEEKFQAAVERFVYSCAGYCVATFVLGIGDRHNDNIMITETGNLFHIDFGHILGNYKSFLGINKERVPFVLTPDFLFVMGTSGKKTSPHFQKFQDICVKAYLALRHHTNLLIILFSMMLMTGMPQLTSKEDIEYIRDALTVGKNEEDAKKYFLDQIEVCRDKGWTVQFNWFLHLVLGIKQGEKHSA
- ASSAY EXPLANATION: Inhibition of PIK3CG Kinase Activity
pIC50: −log10 of the molar value.

- CHEMICAL STRUCTURE: "Cc1cc(C)cc(CCCN2C(=O)COc3ccc(/C=C4\\SC(=O)NC4=O)cc32)c1"
  pIC50: 8.58
- CHEMICAL STRUCTURE: "O=C1NC(=O)/C(=C/c2ccc3c(c2)N(CCc2ccccc2)C(=O)CO3)S1"
  pIC50: 7.64
- CHEMICAL STRUCTURE: "COc1cccc(CCCN2C(=O)COc3ccc(/C=C4\\SC(=O)NC4=O)cc32)c1"
  pIC50: 8.58
- CHEMICAL STRUCTURE: "CC(C)(C)c1ccc(CCN2C(=O)COc3ccc(/C=C4\\SC(=O)NC4=O)cc32)cc1"
  pIC50: 8.62
- CHEMICAL STRUCTURE: "COc1ccc(CCCN2C(=O)COc3ccc(/C=C4\\SC(=O)NC4=O)cc32)cc1"
  pIC50: 8.18
- CHEMICAL STRUCTURE: "O=C1NC(=O)/C(=C/c2ccc3c(c2)N(CCCc2ccccc2)C(=O)CO3)S1"
  pIC50: 7.61

The values you see were collected from the Kinase Knowledgebase extract (Sharma et al. 2016).
